measurement description: Quantitative High-Throughput drug screen in 47 multiple myeloma cell lines against the NCATS MIPE library collection: UTMC2_PLB cell viability assay (AID 1919868); further: nearly all actives have a fitted effect of over 55% in size; further: potency means the concentration at half of the fitted maximal effect
condition summary: CellTiter-Glo ATP luminescence, 48 h
Results filed as inconclusive are left out. Active and inactive are the calls of the source. The call rests on the fitted dose curve; in most records, active means well fitted cell-killing curve with a large enough effect; inconclusive means small, poorly fitted or top-dose-only effect, or effect the other way; inactive means no such curve, though single readings can be large or run the other way.
readout label: Potency

{"molecule": "N[C@H](CSC(c1ccccc1)(c1ccccc1)c1ccccc1)C(=O)O", "obs value": "9.35 µM (active)"}
{"molecule": "CC(C)OC(=O)CCCC=CC[C@@H]1[C@H](C=C[C@@H](O)COc2cccc(C(F)(F)F)c2)[C@H](O)C[C@@H]1O", "obs value": "16.6 µM (active)"}
{"molecule": "C[C@]12CC[C@@H]3c4ccc(O)cc4C[C@@H](CCCCCCCCCS(=O)CCCC(F)(F)C(F)(F)F)[C@H]3[C@H]1CC[C@H]2O (some centres undefined)", "obs value": "inactive"}
{"molecule": "CCC(=O)O[C@]1(C(=O)CO)CC[C@H]2[C@@H]3CCC4=CC(=O)CC[C@]4(C)[C@@H]3CC[C@@]21C", "obs value": "inactive"}
{"molecule": "CC(C)(Cc1ccc2ccccc2c1)NC[C@@H](O)COc1cccc(Cl)c1C#N", "obs value": "inactive"}
{"molecule": "COc1ccc(-n2c(C)c([N+](=O)[O-])c3ccc(O)cc32)cc1", "obs value": "inactive"}
{"molecule": "Cc1c(O)cccc1C(=O)N[C@@H](CSc1ccccc1)[C@H](O)CN1C[C@H]2CCCC[C@@H]2C[C@@H]1C(=O)NC(C)(C)C", "obs value": "23.5 µM (active)"}
{"molecule": "O=C(CCCCCCC(=O)Nc1ccccc1)NO", "obs value": "0.662 µM (active)"}
{"molecule": "O=c1c(-c2ccc(O)cc2)coc2cc(O)ccc12", "obs value": "inactive"}
